Hey, just so you know, these numbers are from ChEMBL document CHEMBL3244022.

Tested on: Morganella morganii
Assay: Antimicrobial activity against Proteus morganii 2834 by agar dilution method
Format: functional
MEASUREMENT TYPE: MIC (µg/mL)

Reference set (3 entries):
> print(dat)
                                   compound  result.value
1  Cn1nnnc1SCC1=C(C(=O)O)N2C(=O)[C@@H](NC(=O)[C@H](O)c3ccccc3)[C@H]2SC1          6.25
2  CO[C@@]1(NC(=O)Cc2cccs2)C(=O)N2C(C(=O)O)=C(COC(N)=O)CC[C@@H]21 (racemic)          6.25
3  Cn1nnnc1SCC1=C(C(=O)O)N2C(=O)[C@@H](NC(=O)C(O)c3ccccc3)[C@H]2CC1 (mixture of isomers)          6.25

(a) CO[C@@]1(NC(=O)Cc2cccs2)C(=O)N2C(C(=O)O)=C(COC(N)=O)CS[C@@H]21
(b) Cn1nnnc1SCC1=C(C(=O)O)N2C(=O)[C@@H](NC(=O)[C@H](O)c3ccccc3)[C@H]2OC1 (racemic)
Prompt: Field: lower MIC | Options: a / b Lab log: write the label of the selected item as the result.
Response: b

====

Test system: Serratia
Test: Antimicrobial activity against Serratia 2852 by agar dilution method
Type: functional
MEASUREMENT TYPE: MIC (µg/mL)

(1) CO[C@@]1(NC(=O)Cc2cccs2)C(=O)N2C(C(=O)O)=C(COC(N)=O)CC[C@@H]21 (racemic)
(2) CO[C@@]1(NC(=O)Cc2cccs2)C(=O)N2C(C(=O)O)=C(COC(N)=O)CS[C@@H]21 [CEFOXITIN]
Prompt: Field: lower MIC | Options: 1 / 2 Lab log: write the label of the selected item as the result.
Response: 2

====

Tested on: Enterococcus
Assay: Antimicrobial activity against Enterococcus 2862 by agar dilution method
Assay type: functional
MEASUREMENT TYPE: MIC (µg/mL)

(A) Cn1nnnc1SCC1=C(C(=O)O)N2C(=O)[C@@H](NC(=O)[C@H](O)c3ccccc3)[C@H]2SC1 [CEFAMANDOLE]
(B) Cn1nnnc1SCC1=C(C(=O)O)N2C(=O)[C@@H](NC(=O)[C@H](O)c3ccccc3)[C@H]2OC1 (racemic)
Prompt: Field: lower MIC | Options: A / B Lab log: write the label of the selected item as the result.
Response: B

====

Test system: Proteus vulgaris
Test: Antimicrobial activity against Proteus vulgaris 2829 by agar dilution method
Format: functional
MEASUREMENT TYPE: MIC (µg/mL)

> print(dat)
                                   compound    assayed.system  measurement.type  readout.unit  result.value
1  Cn1nnnc1SCC1=C(C(=O)O)N2C(=O)[C@@H](NC(=O)[C@H](O)c3ccccc3)[C@H]2OC1 (racemic)  Proteus vulgaris               MIC         µg/mL          1.28
2  CO[C@@]1(NC(=O)Cc2cccs2)C(=O)N2C(C(=O)O)=C(COC(N)=O)CC[C@@H]21 (racemic)  Proteus vulgaris               MIC         µg/mL          6.25

(A) Cn1nnnc1SCC1=C(C(=O)O)N2C(=O)[C@@H](NC(=O)[C@H](O)c3ccccc3)[C@H]2SC1
(B) Cn1nnnc1SCC1=C(C(=O)O)N2C(=O)[C@@H](NC(=O)C(O)c3ccccc3)[C@H]2CC1 (mixture of isomers)
Prompt: Field: lower MIC | Options: A / B Lab log: write the label of the selected item as the result.
Response: A
